Biological target: C-C chemokine receptor type 3 (Homo sapiens, UniProt P51677)
Sequence (P51677 whole entry): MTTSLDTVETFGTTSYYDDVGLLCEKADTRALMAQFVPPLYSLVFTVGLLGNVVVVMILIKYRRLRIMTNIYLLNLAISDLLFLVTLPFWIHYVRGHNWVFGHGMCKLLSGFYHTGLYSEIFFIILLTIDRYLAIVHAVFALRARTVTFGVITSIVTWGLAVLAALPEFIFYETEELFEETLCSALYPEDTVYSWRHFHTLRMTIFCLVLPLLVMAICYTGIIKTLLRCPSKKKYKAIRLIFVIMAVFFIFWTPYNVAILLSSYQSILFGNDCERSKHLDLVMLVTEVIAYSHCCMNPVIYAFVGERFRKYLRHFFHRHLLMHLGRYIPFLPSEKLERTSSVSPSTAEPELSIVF
Experiment: Antagonist activity at CCR3 receptor expressed in mouse B300-19 cells assessed as inhibition of eotaxin-induced calcium influx by spectrophotometry
Under this convention, True denotes IC50 strictly below 0.2 µM and False denotes IC50 at or above 0.2 µM.

{"MOL_SMILES": "O=C(N[C@@H]1C[C@H]2CC[C@@H](C1)N2Cc1ccc2cc(F)ccc2c1)c1ccccc1C(=O)N1CCCC1", "EXPERIMENTAL_SYSTEM": "C-C chemokine receptor type 3 (Homo sapiens, UniProt P51677)", "LABEL_VALUE": "False"}
{"MOL_SMILES": "CN(C(=O)c1ccccc1C(=O)N[C@@H]1C[C@H]2CC[C@@H](C1)N2Cc1ccc2cc(F)ccc2c1)C1CCCCC1", "EXPERIMENTAL_SYSTEM": "C-C chemokine receptor type 3 (Homo sapiens, UniProt P51677)", "LABEL_VALUE": "True"}
{"MOL_SMILES": "O=C(N[C@@H]1C[C@H]2CC[C@@H](C1)N2Cc1ccc2cc(F)ccc2c1)c1ccccc1-c1nccs1", "EXPERIMENTAL_SYSTEM": "C-C chemokine receptor type 3 (Homo sapiens, UniProt P51677)", "LABEL_VALUE": "True"}
{"MOL_SMILES": "O=C(N[C@@H]1C[C@H]2CC[C@@H](C1)N2Cc1ccc2cc(F)ccc2c1)c1ccccc1-n1ccnc1", "EXPERIMENTAL_SYSTEM": "C-C chemokine receptor type 3 (Homo sapiens, UniProt P51677)", "LABEL_VALUE": "False"}
{"MOL_SMILES": "CN1CCN(C(=O)c2ccccc2C(=O)N[C@@H]2C[C@H]3CC[C@@H](C2)N3Cc2ccc3cc(F)ccc3c2)CC1", "EXPERIMENTAL_SYSTEM": "C-C chemokine receptor type 3 (Homo sapiens, UniProt P51677)", "LABEL_VALUE": "False"}
{"MOL_SMILES": "O=C(N[C@@H]1C[C@H]2CC[C@@H](C1)N2Cc1ccc2cc(F)ccc2c1)c1ccccc1C(=O)N1CCCCCC1", "EXPERIMENTAL_SYSTEM": "C-C chemokine receptor type 3 (Homo sapiens, UniProt P51677)", "LABEL_VALUE": "True"}
{"MOL_SMILES": "O=C(N[C@@H]1C[C@H]2CC[C@@H](C1)N2Cc1ccc2cc(F)ccc2c1)c1ccccc1N1CCCCC1", "EXPERIMENTAL_SYSTEM": "C-C chemokine receptor type 3 (Homo sapiens, UniProt P51677)", "LABEL_VALUE": "False"}
{"MOL_SMILES": "O=C(N[C@@H]1C[C@H]2CC[C@@H](C1)N2Cc1ccc2cc(F)ccc2c1)c1ccncc1C(=O)N1CCCCC1", "EXPERIMENTAL_SYSTEM": "C-C chemokine receptor type 3 (Homo sapiens, UniProt P51677)", "LABEL_VALUE": "True"}
{"MOL_SMILES": "O=C(N[C@@H]1C[C@H]2CC[C@@H](C1)N2Cc1ccc2cc(F)ccc2c1)c1ccccc1OC1CCCCC1", "EXPERIMENTAL_SYSTEM": "C-C chemokine receptor type 3 (Homo sapiens, UniProt P51677)", "LABEL_VALUE": "True"}
{"MOL_SMILES": "O=C(N[C@@H]1C[C@H]2CC[C@@H](C1)N2Cc1ccc2cc(F)ccc2c1)c1ccccc1C(=O)N1CCCCC1", "EXPERIMENTAL_SYSTEM": "C-C chemokine receptor type 3 (Homo sapiens, UniProt P51677)", "LABEL_VALUE": "True"}
{"MOL_SMILES": "O=C(N[C@@H]1C[C@H]2CC[C@@H](C1)N2Cc1ccc2cc(F)ccc2c1)c1ccccc1-c1ccncc1", "EXPERIMENTAL_SYSTEM": "C-C chemokine receptor type 3 (Homo sapiens, UniProt P51677)", "LABEL_VALUE": "False"}
{"MOL_SMILES": "O=C(N[C@@H]1C[C@H]2CC[C@@H](C1)N2Cc1ccc2cc(F)ccc2c1)c1cccnc1C(=O)N1CCCCC1", "EXPERIMENTAL_SYSTEM": "C-C chemokine receptor type 3 (Homo sapiens, UniProt P51677)", "LABEL_VALUE": "True"}
{"MOL_SMILES": "O=C(N[C@@H]1C[C@H]2CC[C@@H](C1)N2Cc1ccc2cc(F)ccc2c1)c1ncccc1C(=O)N1CCCCC1", "EXPERIMENTAL_SYSTEM": "C-C chemokine receptor type 3 (Homo sapiens, UniProt P51677)", "LABEL_VALUE": "True"}
{"MOL_SMILES": "O=C(N[C@@H]1C[C@H]2CC[C@@H](C1)N2Cc1ccc2cc(F)ccc2c1)c1ccccc1C(=O)N1CCOCC1", "EXPERIMENTAL_SYSTEM": "C-C chemokine receptor type 3 (Homo sapiens, UniProt P51677)", "LABEL_VALUE": "False"}
{"MOL_SMILES": "O=C(N[C@@H]1C[C@H]2CC[C@@H](C1)N2Cc1ccc2cc(F)ccc2c1)c1ccccc1-n1cccc1", "EXPERIMENTAL_SYSTEM": "C-C chemokine receptor type 3 (Homo sapiens, UniProt P51677)", "LABEL_VALUE": "False"}

###

# IC50 measurements, system: Cytochrome P450 2D6 (Homo sapiens, UniProt P10635)
# Sequence (P10635 whole entry): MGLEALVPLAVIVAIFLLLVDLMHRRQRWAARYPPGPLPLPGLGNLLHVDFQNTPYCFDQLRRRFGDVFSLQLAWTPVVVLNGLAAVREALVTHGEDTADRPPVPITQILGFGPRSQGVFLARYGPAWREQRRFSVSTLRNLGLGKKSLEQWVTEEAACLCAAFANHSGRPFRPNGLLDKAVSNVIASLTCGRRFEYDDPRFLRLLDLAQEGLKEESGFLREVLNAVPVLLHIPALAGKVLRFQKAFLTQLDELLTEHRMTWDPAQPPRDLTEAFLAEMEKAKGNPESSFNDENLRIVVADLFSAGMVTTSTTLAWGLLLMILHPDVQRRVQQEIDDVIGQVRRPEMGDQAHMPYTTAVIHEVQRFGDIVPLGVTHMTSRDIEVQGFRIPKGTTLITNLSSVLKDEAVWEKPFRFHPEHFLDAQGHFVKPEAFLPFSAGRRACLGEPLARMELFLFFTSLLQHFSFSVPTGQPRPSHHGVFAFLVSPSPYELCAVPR

{"MOL_SMILES": "O=C(N[C@@H]1C[C@H]2CC[C@@H](C1)N2Cc1ccc2cc(F)ccc2c1)c1ccccc1-c1nccs1", "IC50 (µM)": 2.4}
{"MOL_SMILES": "O=C(N[C@@H]1C[C@H]2CC[C@@H](C1)N2Cc1ccc2cc(F)ccc2c1)c1cccnc1C(=O)N1CCCCC1", "IC50 (µM)": 18.3}
{"MOL_SMILES": "O=C(N[C@@H]1C[C@H]2CC[C@@H](C1)N2Cc1ccc2cc(F)ccc2c1)c1ccccc1C(=O)N1CCOCC1", "IC50 (µM)": 8.2}

###

molecular target: Cytochrome P450 1A2 (Homo sapiens, UniProt P05177)
Sequence (P05177 whole entry): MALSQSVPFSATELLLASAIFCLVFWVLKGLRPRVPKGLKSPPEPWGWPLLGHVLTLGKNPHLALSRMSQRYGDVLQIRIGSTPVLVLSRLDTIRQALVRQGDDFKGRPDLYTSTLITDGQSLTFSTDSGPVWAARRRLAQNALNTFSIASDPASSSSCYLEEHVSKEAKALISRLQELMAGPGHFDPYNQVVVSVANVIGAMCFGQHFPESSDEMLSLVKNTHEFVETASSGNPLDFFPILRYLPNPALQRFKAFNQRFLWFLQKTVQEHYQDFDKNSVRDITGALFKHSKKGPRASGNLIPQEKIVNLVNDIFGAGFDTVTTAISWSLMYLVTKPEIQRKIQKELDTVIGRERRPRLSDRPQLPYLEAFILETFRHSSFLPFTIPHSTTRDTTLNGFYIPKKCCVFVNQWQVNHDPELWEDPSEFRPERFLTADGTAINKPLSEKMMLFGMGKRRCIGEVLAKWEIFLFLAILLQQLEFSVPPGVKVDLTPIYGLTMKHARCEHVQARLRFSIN
pIC50: −log10 of the molar value.

{"COMPOUND": "O=C(NC1C[C@H]2CC[C@H](C1)N2Cc1ccc2cc(F)ccc2c1)c1ccccc1-c1ccccc1 (stereo partly specified)", "pIC50": "< 4.70"}

###

Reported IC50 by item:
biological target: C-C chemokine receptor type 3 (Homo sapiens); experiment: Antagonist activity at CCR3 receptor expressed in mouse B300-19 cells assessed as inhibition of eotaxin-induced calcium influx by spectrophotometry

{"MOL_SMILES": "O=C(N[C@@H]1C[C@H]2CC[C@@H](C1)N2Cc1ccc2cc(F)ccc2c1)c1ccccc1-c1cccnc1", "IC50 [nM]": 29}
{"MOL_SMILES": "O=C(N[C@@H]1C[C@H]2CC[C@@H](C1)N2Cc1ccc2cc(F)ccc2c1)c1ccccc1-c1ccccn1", "IC50 [nM]": 57}
{"MOL_SMILES": "O=C(N[C@@H]1C[C@H]2CC[C@@H](C1)N2Cc1ccc2cc(F)ccc2c1)c1ccccc1-c1cncnc1", "IC50 [nM]": 93}
{"MOL_SMILES": "O=C(N[C@@H]1C[C@H]2CC[C@@H](C1)N2Cc1ccc2cc(F)ccc2c1)c1cnccc1C(=O)N1CCCCC1", "IC50 [nM]": 85}
